Data origin: PubChem BioAssay AID977605

experiment: endothelial E-selectin upregulation by compounds – imaging, HUVEC, cherry-picked samples, dose response (AID 977605);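 also: signal is the share of imaged cells scored positive for E-selectin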
conditions: HUVEC E-selectin immunostaining, at 19.5 µM (top of the series), percent of TNF-alpha response over vehicle
assay-readout: activation (%)
Enter your answer as a number in %; do not include the unit.

Please look up its activation: COc1ccc(S(=O)(=O)N(C)C[C@H]2Oc3ccc(NC(=O)c4ccncc4)cc3C(=O)N([C@@H](C)CO)C[C@@H]2C)cc1 -0.047

Need activation of C[C@H](CO)N1C[C@H](C)[C@H](CN(C)Cc2ccc(C(F)(F)F)cc2)Oc2ccc(N(C)C)cc2CC1=O , thanks. 0.692

I'd like to know its activation. The molecule in question is C[C@H]1CN([C@@H](C)CO)C(=O)c2cccc(NS(=O)(=O)c3ccc(F)cc3)c2O[C@H]1CN(C)S(=O)(=O)c1cccs1 -0.103

Which measured activation value corresponds to Cc1noc(C)c1S(=O)(=O)N(C)C[C@H]1Oc2ccc(NC(=O)Nc3ccc(F)cc3)cc2CC(=O)N([C@H](C)CO)C[C@@H]1C ? -0.001

Fill blank: measured activation of the molecule C[C@@H]1CN([C@@H](C)CO)C(=O)Cc2cc(NC(=O)c3ccncc3)ccc2O[C@@H]1CN(C)S(C)(=O)=O is ____. 4.61

Requested read-out: activation. Entry: C[C@H](CO)N1C[C@H](C)[C@H](CN(C)Cc2ccc(C(F)(F)F)cc2)Oc2ccc(NS(=O)(=O)c3cn(C)cn3)cc2CC1=O -0.066

Give the measured activation of C[C@@H]1CN([C@H](C)CO)C(=O)Cc2cc(NS(=O)(=O)c3ccc(F)cc3)ccc2O[C@H]1CN(C)S(=O)(=O)c1ccc(Cl)cc1 . 5.23

Please look up its activation: C[C@H]1CN([C@@H](C)CO)C(=O)Cc2cc(NC(=O)NC3CCCCC3)ccc2O[C@@H]1CN(C)Cc1ccc(Cl)c(Cl)c1 0.088

Which activation value belongs to C[C@@H]1CN([C@H](C)CO)C(=O)c2cccc(NC(=O)C3CCOCC3)c2O[C@@H]1CN(C)Cc1ccc(Oc2ccccc2)cc1 ? 0.031

State the recorded activation for this entry: C[C@H](CO)N1C[C@H](C)[C@H](CN(C)CC2CCCCC2)Oc2ccc(NC(=O)Nc3ccc4c(c3)OCO4)cc2C1=O -0.185

Please report the recorded activation for C[C@@H]1CN([C@@H](C)CO)C(=O)c2cccc(NC(=O)c3ccc(-c4nccs4)cc3)c2O[C@@H]1CN(C)Cc1ccc(Cl)c(Cl)c1 . 0.039

Any idea what its activation is? The molecule is C[C@@H]1CN([C@H](C)CO)C(=O)Cc2cc(NC(=O)Cn3cnnn3)ccc2O[C@H]1CN(C)C(=O)Nc1ccc(C(F)(F)F)cc1 0.232

Which value of activation has been reported for COc1ccc(-c2nnc3n2CCCCC3)cc1OC in the records? 0.027

Value lookup for activation; key = CCCCNC(=O)N1CCN(c2ccccc2OCC)CC1 0.12

Name the reported activation value associated with the molecule C[C@H](CO)N1C[C@H](C)[C@@H](CN(C)C(=O)NC2CCCCC2)Oc2ccc(NS(=O)(=O)c3ccccc3)cc2C1=O -0.099

* * *

Assignment: determine reported activation for the given molecules.
experiment: endothelial E-selectin upregulation by compounds – imaging, HUVEC, cherry-picked samples, dose response (AID 977605);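 also: signal is the share of imaged cells scored positive for E-selectin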
conditions: HUVEC E-selectin immunostaining, at 19.5 µM (top of the series), percent of TNF-alpha response over vehicle
Only the number, expressed in %, is required.

Bench note: what activation did Cc1noc(C)c1S(=O)(=O)N(C)C[C@H]1Oc2ccc(NS(C)(=O)=O)cc2CC(=O)N([C@@H](C)CO)C[C@H]1C show? 0.259

Need activation of C[C@@H]1CN([C@@H](C)CO)C(=O)c2cccc(NC(=O)Nc3ccccc3)c2O[C@H]1CN(C)S(=O)(=O)c1ccccc1 , thanks. 0.91

What value of measured activation is listed for CO[C@@H]1CN(C)C(=O)c2cc(NS(C)(=O)=O)ccc2OC[C@@H](C)N(C(=O)c2ccc3c(c2)OCO3)C[C@@H]1C ? -0.203

I am curious: what activation value has been reported for COc1ccc(N2CCN(C(=O)c3ccccc3NC(=O)C3=C(C)OCCS3)CC2)cc1 ? -0.181

So what's the measured activation for this one? O=C(NCc1ccccc1)C1CCCN(S(=O)(=O)c2ccc(-n3cnnn3)cc2)C1 (stereo unspecified) 1.85

Record request: activation value, item C[C@H]1CN([C@@H](C)CO)C(=O)c2cccc(NC(=O)Nc3ccc(F)cc3)c2O[C@H]1CN(C)CC1CCCCC1 -0.099

State the recorded activation for this entry: Cc1noc(C)c1NC(=O)N(C)C[C@H]1Oc2ccc(NS(=O)(=O)c3cccs3)cc2C(=O)N([C@H](C)CO)C[C@@H]1C 3.28

State the recorded activation for this entry: C[C@H]1CN([C@@H](C)CO)C(=O)c2cccc(NS(C)(=O)=O)c2O[C@H]1CN(C)S(C)(=O)=O 0.973

What measured activation goes with C[C@@H]1CN([C@@H](C)CO)C(=O)Cc2cc(NC(=O)Nc3ccc(F)cc3)ccc2O[C@H]1CN(C)C(=O)Nc1ccc(C(F)(F)F)cc1 ? -0.14

Param item = Cc1cc(C)cc(NC(=O)Cc2ccc(NC3=NC4CS(=O)(=O)CC4S3)cc2)c1 (stereo unspecified) ; retrieve measured activation. 0.105

Look at this molecule and give its reported activation. C[C@@H]1CN([C@H](C)CO)C(=O)c2cc(NC(=O)Cc3cn(C)c4ccccc34)ccc2O[C@H]1CN(C)Cc1ccc(Cl)c(Cl)c1 4.38

Which activation reading was recorded for the molecule C[C@@H]1CN([C@H](C)CO)C(=O)c2cc(N(C)C)ccc2O[C@@H]1CN(C)C(=O)Nc1ccc2c(c1)OCO2 ? 0.018

Which activation value is on record for CC(C)NC(=O)N(C)C[C@@H]1Oc2ccc(NC(=O)Cc3cn(C)c4ccccc34)cc2C(=O)N([C@H](C)CO)C[C@H]1C ? 0.047

I would be grateful if you could share the reported activation for COc1ccc(CN(C)C[C@H]2Oc3ccc(NC(=O)Cn4cnnn4)cc3CC(=O)N([C@@H](C)CO)C[C@@H]2C)cc1 . -0.061

Need activation, item COc1ccccc1-c1c(C)nn2c(NCCN3CCCC3)cc(C)nc12 0.061

activation for CSc1nc2c(cnn2-c2ccc(C)c(C)c2)c(=O)[nH]1 ? 0.487
